Cited source: patent US20230381229A1

# target-desc: T1, TIGIT (human)
# T1 chain: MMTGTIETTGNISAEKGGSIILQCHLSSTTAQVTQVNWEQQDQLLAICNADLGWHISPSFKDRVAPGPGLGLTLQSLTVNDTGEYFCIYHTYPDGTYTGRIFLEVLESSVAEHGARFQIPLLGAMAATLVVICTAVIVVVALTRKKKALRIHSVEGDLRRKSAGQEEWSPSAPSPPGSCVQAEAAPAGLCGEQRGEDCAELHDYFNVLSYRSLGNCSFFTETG
# measurement-description: cell-based or functional assay
measured-parameter: IL-2 luciferase reporter, Normalized Fold Change from CD155-ECD, proteins at 50 nM (fold)
Could you give me the number in fold? Just the number is fine.

Take a look at these entries with their results.
| binder | unit | data-value |
| --- | --- | --- |
| variant CD155 IgV-Fc P18F, T26M, L44V, Q62K, L79P, E82D, F91S, L104M, G111D (Fc fusion) WPPPGTGDVVVQAPTQVFGFLGDSVMLPCYLQVPNMEVTHVSQVTWARHGESGSMAVFHQTKGPSYSESKRLEFVAARPGADLRNASLRMSGLRVEDEGNYTCMFVTFPQDSRSVDIWLRVLGSGGGGSEPKSSDKTHTCPPCPAPEAEGAPSVFLFPPKPKDTLMISRTPEVTCVVVDVSHEDPEVKFNWYVDGVEVHNAKTKPREEQYNSTYRVVSVLTVLHQDWLNGKEYKCKVSNKALPAPIEKTISKAKGQPREPQVYTLPPSRDELTKNQVSLTCLVKGFYPSDIAVEWESNGQPENNYKTTPPVLDSDGSFFLYSKLTVDKSRWQQGNVFSCSVMHEALHNHYTQKSLSLSPGK | fold | 4 |
| variant CD155 IgV-Fc V9I, P18T, D23G, L79P, F91S, G111R (Fc fusion) WPPPGTGDIVVQAPTQVTGFLGGSVTLPCYLQVPNMEVTHVSQLTWARHGESGSMAVFHQTQGPSYSESKRLEFVAARPGAELRNASLRMSGLRVEDEGNYTCLFVTFPQRSRSVDIWLRVLGSGGGGSEPKSSDKTHTCPPCPAPEAEGAPSVFLFPPKPKDTLMISRTPEVTCVVVDVSHEDPEVKFNWYVDGVEVHNAKTKPREEQYNSTYRVVSVLTVLHQDWLNGKEYKCKVSNKALPAPIEKTISKAKGQPREPQVYTLPPSRDELTKNQVSLTCLVKGFYPSDIAVEWESNGQPENNYKTTPPVLDSDGSFFLYSKLTVDKSRWQQGNVFSCSVMHEALHNHYTQKSLSLSPGK | fold | 2 |
| variant CD155 IgV-Fc P18F, S65A, S67V, F91S, L104M, G111R (Fc fusion) WPPPGTGDVVVQAPTQVFGFLGDSVTLPCYLQVPNMEVTHVSQLTWARHGESGSMAVFHQTQGPAYVESKRLEFVAARLGAELRNASLRMSGLRVEDEGNYTCMFVTFPQRSRSVDIWLRVLGSGGGGSEPKSSDKTHTCPPCPAPEAEGAPSVFLFPPKPKDTLMISRTPEVTCVVVDVSHEDPEVKFNWYVDGVEVHNAKTKPREEQYNSTYRVVSVLTVLHQDWLNGKEYKCKVSNKALPAPIEKTISKAKGQPREPQVYTLPPSRDELTKNQVSLTCLVKGFYPSDIAVEWESNGQPENNYKTTPPVLDSDGSFFLYSKLTVDKSRWQQGNVFSCSVMHEALHNHYTQKSLSLSPGK | fold | 0.6 |
| variant CD155 IgV-Fc V9L, P18L, L79P, M90I, F91S, T102S, L104M, G111R (Fc fusion) WPPPGTGDLVVQAPTQVLGFLGDSVTLPCYLQVPNMEVTHVSQLTWARHGESGSMAVFHQTQGPSYSESKRLEFVAARPGAELRNASLRISGLRVEDEGNYSCMFVTFPQRSRSVDIWLRVLGSGGGGSEPKSSDKTHTCPPCPAPEAEGAPSVFLFPPKPKDTLMISRTPEVTCVVVDVSHEDPEVKFNWYVDGVEVHNAKTKPREEQYNSTYRVVSVLTVLHQDWLNGKEYKCKVSNKALPAPIEKTISKAKGQPREPQVYTLPPSRDELTKNQVSLTCLVKGFYPSDIAVEWESNGQPENNYKTTPPVLDSDGSFFLYSKLTVDKSRWQQGNVFSCSVMHEALHNHYTQKSLSLSPGK | fold | 2.4 |
| variant CD155 IgV-Fc P18S, A47G, L79P, F91S, L104M, T107A, R113W (Fc fusion) WPPPGTGDVVVQAPTQVSGFLGDSVTLPCYLQVPNMEVTHVSQLTWGRHGESGSMAVFHQTQGPSYSESKRLEFVAARPGAELRNASLRMSGLRVEDEGNYTCMFVAFPQGSWSVDIWLRVLGSGGGGSEPKSSDKTHTCPPCPAPEAEGAPSVFLFPPKPKDTLMISRTPEVTCVVVDVSHEDPEVKFNWYVDGVEVHNAKTKPREEQYNSTYRVVSVLTVLHQDWLNGKEYKCKVSNKALPAPIEKTISKAKGQPREPQVYTLPPSRDELTKNQVSLTCLVKGFYPSDIAVEWESNGQPENNYKTTPPVLDSDGSFFLYSKLTVDKSRWQQGNVFSCSVMHEALHNHYTQKSLSLSPGK | fold | 5 |

Problem: Reported IL-2 luciferase reporter, Normalized Fold Change from CD155-ECD, proteins at 50 nM for variant CD155 IgV-Fc P18L, K70E, L79P, F91S, V95A, G111R (Fc fusion) WPPPGTGDVVVQAPTQVLGFLGDSVTLPCYLQVPNMEVTHVSQLTWARHGESGSMAVFHQTQGPSYSESERLEFVAARPGAELRNASLRMSGLRAEDEGNYTCLFVTFPQRSRSVDIWLRVLGSGGGGSEPKSSDKTHTCPPCPAPEAEGAPSVFLFPPKPKDTLMISRTPEVTCVVVDVSHEDPEVKFNWYVDGVEVHNAKTKPREEQYNSTYRVVSVLTVLHQDWLNGKEYKCKVSNKALPAPIEKTISKAKGQPREPQVYTLPPSRDELTKNQVSLTCLVKGFYPSDIAVEWESNGQPENNYKTTPPVLDSDGSFFLYSKLTVDKSRWQQGNVFSCSVMHEALHNHYTQKSLSLSPGK : what is it?
Result: 2.4

Problem: Fill blank: measured IL-2 luciferase reporter, Normalized Fold Change from CD155-ECD, proteins at 50 nM of the binder variant CD155 IgV-Fc V9L, P18S, Q60R, V75L, L79P, R89K, F91S, L104E, G111R (Fc fusion) WPPPGTGDLVVQAPTQVSGFLGDSVTLPCYLQVPNMEVTHVSQLTWARHGESGSMAVFHRTQGPSYSESKRLEFLAARPGAELRNASLKMSGLRVEDEGNYTCEFVTFPQRSRSVDIWLRVLGSGGGGSEPKSSDKTHTCPPCPAPEAEGAPSVFLFPPKPKDTLMISRTPEVTCVVVDVSHEDPEVKFNWYVDGVEVHNAKTKPREEQYNSTYRVVSVLTVLHQDWLNGKEYKCKVSNKALPAPIEKTISKAKGQPREPQVYTLPPSRDELTKNQVSLTCLVKGFYPSDIAVEWESNGQPENNYKTTPPVLDSDGSFFLYSKLTVDKSRWQQGNVFSCSVMHEALHNHYTQKSLSLSPGK is ____.
Result: 1.8

Problem: I would be grateful if you could share the reported IL-2 luciferase reporter, Normalized Fold Change from CD155-ECD, proteins at 50 nM for variant CD155 IgV-Fc V9I, Q12K, P18F, S65A, S67V, L79P, L104T, G111R, S112I (Fc fusion) WPPPGTGDIVVKAPTQVFGFLGDSVTLPCYLQVPNMEVTHVSQLTWARHGESGSMAVFHQTQGPAYVESKRLEFVAARPGAELRNASLRMFGLRVEDEGNYTCTFVTFPQRIRSVDIWLRVLGSGGGGSEPKSSDKTHTCPPCPAPEAEGAPSVFLFPPKPKDTLMISRTPEVTCVVVDVSHEDPEVKFNWYVDGVEVHNAKTKPREEQYNSTYRVVSVLTVLHQDWLNGKEYKCKVSNKALPAPIEKTISKAKGQPREPQVYTLPPSRDELTKNQVSLTCLVKGFYPSDIAVEWESNGQPENNYKTTPPVLDSDGSFFLYSKLTVDKSRWQQGNVFSCSVMHEALHNHYTQKSLSLSPGK .
Result: 2.3
